Sourced from PubChem BioAssay (NCI)

Tested on: OVCAR-4 ovarian
Assay: NCI tumour cell line growth inhibition, 48 h
Reported values of TGI for individual entries
RECORDED METRIC: TGI

COMPOUND	RECORDED METRIC	MEASURED VALUE
NC(N)=NS(=O)(=O)c1ccc(NCc2c3ccccc3[n+]([O-])c3ccccc23)cc1	TGI	85.3 µM
COc1ccccc1N/C(=C\C(=O)C(=O)NC12CC3CC(CC(C3)C1)C2)c1ccccc1	TGI	> 10 µM
CCOc1ccc2c(c1)[n+]([O-])c(S(=O)(=O)c1ccc(C)cc1)c(N)[n+]2[O-]	TGI	> 100 µM
CN(CCC#N)c1ccc(/C=C2\SC(=S)NC2=O)cc1	TGI	> 100 µM
Brc1ccc(CCNCCN2CCCCC2)cc1	TGI	48.1 µM
COC(=O)C1C(C(=O)OC)N(Cc2ccccc2)C(=O)N1Cc1ccccc1 (stereo unspecified)	TGI	> 100 µM
Cc1cc2c(cc1C)[n+](=O)c(C(=O)CC(=O)C(=O)Nc1c(C(C)C)cccc1C(C)C)c(C)n2[O-]	TGI	> 100 µM
Cc1cc(N(CCOS(C)(=O)=O)CCOS(C)(=O)=O)ccc1C=Nc1ccc(-c2nc(Cc3ccccc3)sc2C)cc1	TGI	36.8 µM
COCOC1/C=C/CCCC#C[C@H](C)C(=O)CC1 (stereo partly specified)	TGI	22.3 µM
O=C(CN1c2ccccc2Sc2ccccc21)N1CCNCC1	TGI	> 100 µM
CC[CH2][Pb]([CH2]CC)([CH2]CC)[O]C(=O)C(F)(F)F	TGI	0.178 µM
CSc1ccc(C2=NN(C(C)=O)C(c3cc(C)cs3)C2)cc1 (stereo unspecified)	TGI	> 100 µM
COc1cc(OC)cc(-c2ccc(-c3ccc(C(=N)N)o3)o2)c1	TGI	14.8 µM
COc1cnc2cc(C(=O)O)c3c([N+](=O)[O-])cccc3c2c1	TGI	> 100 µM
Cc1c(F)c(N)c2c(=O)cc(-c3ccc(NC(=O)CN(C)C)c(F)c3)oc2c1F	TGI	> 92.5 µM
CCOC(=O)c1csc(NC(=O)CCN(CC)CC)n1	TGI	> 100 µM
C=C(CN1CCc2ccccc2C1)c1ccc(C(=O)Nc2cnccn2)cc1	TGI	> 100 µM
CCOC(=O)CCc1cc(=O)oc2cc(O)cc(O)c12	TGI	> 100 µM
CN1C(=O)C2C(=O)N(Cc3ccccc3)CC(=O)N2c2cccnc21 (stereo unspecified)	TGI	> 100 µM
COC(=O)c1cc2c3ccccc3[nH]c2c2ncccc12	TGI	> 100 µM
O=C(CN1CCOCC1)Nc1ccc(Cn2nnc3c2C(=O)c2nnn(Cc4ccc(NC(=O)CN5CCOCC5)cc4)c2C3=O)cc1	TGI	1.52 µM
